Data origin, for the record: patent US20040106626A1

Target: Human thrombin (Homo sapiens, UniProt P00734)
Construct: converts prothrombin (II) to thrombin (IIa); purchased Calbiochem, La Jolla, Calif
Test: Thrombin assay (chromogenic substrate)
Format: biochemical
Conditions: reported only as less than or greater than 30 uM; read-out: Thrombin (II) IC50
readout label: IC50

CC(=O)Oc1cc(N)cc(-c2cnc(NC(C)C)c(=O)n2CC(=O)NCc2ccc(C(=N)N)cc2)c1.O=C(O)C(F)(F)F | > 30 µM
CC(C)Nc1ncc(-c2cc(N)cc(OCCc3ccccc3)c2)n(CC(=O)NCc2ccc(C(=N)N)cc2)c1=O.O=C(O)C(F)(F)F.O=C(O)C(F)(F)F | > 30 µM
CC(C)Nc1ncc(-c2cc(N)cc(OC(=O)C3CC3)c2)n(CC(=O)NCc2ccc(C(=N)N)cc2)c1=O.O=C(O)C(F)(F)F.O=C(O)C(F)(F)F | > 30 µM
